# SYSTEM_TESTED: T1, human CCL2 (MCP1) - P8A variant (human, UniProt P13500 24-99)
# T1 construct: In-house point mutant that cannot dimerise; also called monomeric human CCL2; monomeric CCL2
# ASSAY_TEXT: number printed beside the row of sensorgrams; the assay and the CCL2 form behind the number are not stated on the sheet (the sensorgrams are on monomeric CCL2)
METRIC_NAME: Affinity relative to parent CNTO888 (X)
Unit X implied. Number only.

Summary for this binder, CNTO888H0625/CNTO888L0616 (antibody, V domains shown, also called modified CNTO888 variant (VH H0625 / VL L0616)) VH: QVQLVQSGAEVKKPGSSVKVSCKASGGTFSHYGISWVRQAPGQGLEWMGGIIHIFHTANYAQKFQGRVTITADESTSTAYMELSSLRSEDTAVYYCARYDAHYGELDFWGQGTLVTVSS VL: EIVLTQSPATLSLSPGERATLSCRASQHVSDAYLAWYQQKPGQAPRLLIYDASDRAEGVPARFSGSGSGTDFTLTISSLEPEDFAVYYCHQYIHLHSFTFGQGTKVEIK : Affinity relative to parent CNTO888 is 3
